Below is a list of entries, each paired with its recorded IC50 value.
Target: PI3K γ (Homo sapiens, UniProt P48736)
Construct: purchased Sigma
Sequence (P48736 whole entry): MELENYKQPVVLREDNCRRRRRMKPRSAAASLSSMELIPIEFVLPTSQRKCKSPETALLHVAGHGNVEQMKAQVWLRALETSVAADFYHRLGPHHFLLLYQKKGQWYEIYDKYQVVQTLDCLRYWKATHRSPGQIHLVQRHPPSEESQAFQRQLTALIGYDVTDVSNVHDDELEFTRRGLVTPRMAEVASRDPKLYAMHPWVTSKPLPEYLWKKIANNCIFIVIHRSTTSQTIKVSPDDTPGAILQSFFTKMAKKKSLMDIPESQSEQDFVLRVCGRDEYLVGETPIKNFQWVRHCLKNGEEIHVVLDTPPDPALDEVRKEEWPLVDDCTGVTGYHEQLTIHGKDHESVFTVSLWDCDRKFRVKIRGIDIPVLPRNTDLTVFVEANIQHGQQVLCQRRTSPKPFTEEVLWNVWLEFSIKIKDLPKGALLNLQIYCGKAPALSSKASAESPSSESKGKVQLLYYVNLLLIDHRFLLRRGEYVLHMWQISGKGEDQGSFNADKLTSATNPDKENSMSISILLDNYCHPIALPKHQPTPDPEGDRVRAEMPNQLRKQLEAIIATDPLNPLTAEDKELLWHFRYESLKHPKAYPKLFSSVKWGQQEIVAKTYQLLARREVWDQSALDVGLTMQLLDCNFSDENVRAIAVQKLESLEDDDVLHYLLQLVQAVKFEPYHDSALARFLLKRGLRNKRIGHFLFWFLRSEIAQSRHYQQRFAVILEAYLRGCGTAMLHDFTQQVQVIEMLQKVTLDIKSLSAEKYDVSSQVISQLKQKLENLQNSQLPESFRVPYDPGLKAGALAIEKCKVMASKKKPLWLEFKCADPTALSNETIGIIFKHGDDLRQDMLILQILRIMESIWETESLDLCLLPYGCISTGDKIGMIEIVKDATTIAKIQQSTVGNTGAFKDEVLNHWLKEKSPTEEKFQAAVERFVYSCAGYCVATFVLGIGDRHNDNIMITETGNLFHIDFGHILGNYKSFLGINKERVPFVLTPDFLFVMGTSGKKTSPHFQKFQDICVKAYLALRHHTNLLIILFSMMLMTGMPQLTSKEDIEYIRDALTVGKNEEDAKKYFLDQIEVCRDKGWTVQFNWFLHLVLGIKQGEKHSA
Experiment: In vitro PI3K γ inhibition assay
Format: biochemical

Before answering, review these 2 worked examples.
compound	target desc	measure	result
C[C@@H](Nc1ncnc2[nH]cnc12)c1cc2cccc(N3CCOCC3)c2c(=O)n1-c1ccccc1 (stereo in doubt)	PI3K γ (Homo sapiens, UniProt P48736)	IC50	< 1000 nM
C[C@@H](Nc1ncnc2[nH]cnc12)c1cc2cccc(-c3cccnc3)c2c(=O)n1-c1ccccc1 (stereo in doubt)	PI3K γ (Homo sapiens, UniProt P48736)	IC50	< 100 nM

Would you kindly look at the next entry?
// recorded IC50 for CC(Nc1ncnc2[nH]cnc12)c1cc2cccc(C#N)c2c(=O)n1-c1ccccc1 (stereo in doubt) : < 100 nM

====

Target: PI3K δ (Homo sapiens, UniProt O00329)
Construct: purchased Upstate
Sequence (O00329 whole entry, one chain of several): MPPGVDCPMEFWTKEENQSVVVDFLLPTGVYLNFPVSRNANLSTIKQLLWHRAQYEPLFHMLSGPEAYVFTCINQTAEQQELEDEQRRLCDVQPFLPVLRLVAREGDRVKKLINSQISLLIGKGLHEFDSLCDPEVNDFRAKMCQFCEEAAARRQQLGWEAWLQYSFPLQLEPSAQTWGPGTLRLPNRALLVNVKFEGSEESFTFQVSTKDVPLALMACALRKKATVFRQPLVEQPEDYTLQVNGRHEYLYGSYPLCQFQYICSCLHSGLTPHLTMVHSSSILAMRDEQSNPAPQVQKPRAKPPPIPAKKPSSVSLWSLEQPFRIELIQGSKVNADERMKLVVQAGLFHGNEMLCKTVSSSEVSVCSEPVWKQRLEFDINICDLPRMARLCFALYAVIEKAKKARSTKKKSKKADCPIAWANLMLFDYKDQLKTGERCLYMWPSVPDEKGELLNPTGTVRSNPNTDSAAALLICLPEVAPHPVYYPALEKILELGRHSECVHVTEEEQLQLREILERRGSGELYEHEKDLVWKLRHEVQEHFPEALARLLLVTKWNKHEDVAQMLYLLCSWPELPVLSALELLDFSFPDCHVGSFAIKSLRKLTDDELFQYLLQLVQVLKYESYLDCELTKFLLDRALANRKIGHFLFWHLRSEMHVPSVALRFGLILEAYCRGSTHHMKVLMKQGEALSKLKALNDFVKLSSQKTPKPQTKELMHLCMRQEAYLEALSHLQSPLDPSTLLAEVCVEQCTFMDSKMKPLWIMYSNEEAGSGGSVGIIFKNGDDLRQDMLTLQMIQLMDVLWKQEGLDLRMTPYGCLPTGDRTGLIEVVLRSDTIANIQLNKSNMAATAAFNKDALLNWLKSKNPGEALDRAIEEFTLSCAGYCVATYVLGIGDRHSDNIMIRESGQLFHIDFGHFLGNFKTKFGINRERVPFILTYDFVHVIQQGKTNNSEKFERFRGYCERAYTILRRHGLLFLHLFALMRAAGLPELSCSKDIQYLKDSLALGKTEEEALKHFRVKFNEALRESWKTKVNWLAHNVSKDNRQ
Assay: In vitro PI3K δ inhibition assay
Assay type: biochemical
The following compounds are shown together with reported IC50 values.

For this compound ( C[C@@H](Nc1ncnc2[nH]cnc12)c1cc2cccc(-c3cccc(F)c3)c2c(=O)n1-c1ccccc1 (stereo in doubt) ), measured IC50 is < 100 nM

====

Readings of IC50 for the listed compounds
Molecular target: PI3K β (Homo sapiens)
Construct: purchased Upstate
Sequence (P42338 whole entry): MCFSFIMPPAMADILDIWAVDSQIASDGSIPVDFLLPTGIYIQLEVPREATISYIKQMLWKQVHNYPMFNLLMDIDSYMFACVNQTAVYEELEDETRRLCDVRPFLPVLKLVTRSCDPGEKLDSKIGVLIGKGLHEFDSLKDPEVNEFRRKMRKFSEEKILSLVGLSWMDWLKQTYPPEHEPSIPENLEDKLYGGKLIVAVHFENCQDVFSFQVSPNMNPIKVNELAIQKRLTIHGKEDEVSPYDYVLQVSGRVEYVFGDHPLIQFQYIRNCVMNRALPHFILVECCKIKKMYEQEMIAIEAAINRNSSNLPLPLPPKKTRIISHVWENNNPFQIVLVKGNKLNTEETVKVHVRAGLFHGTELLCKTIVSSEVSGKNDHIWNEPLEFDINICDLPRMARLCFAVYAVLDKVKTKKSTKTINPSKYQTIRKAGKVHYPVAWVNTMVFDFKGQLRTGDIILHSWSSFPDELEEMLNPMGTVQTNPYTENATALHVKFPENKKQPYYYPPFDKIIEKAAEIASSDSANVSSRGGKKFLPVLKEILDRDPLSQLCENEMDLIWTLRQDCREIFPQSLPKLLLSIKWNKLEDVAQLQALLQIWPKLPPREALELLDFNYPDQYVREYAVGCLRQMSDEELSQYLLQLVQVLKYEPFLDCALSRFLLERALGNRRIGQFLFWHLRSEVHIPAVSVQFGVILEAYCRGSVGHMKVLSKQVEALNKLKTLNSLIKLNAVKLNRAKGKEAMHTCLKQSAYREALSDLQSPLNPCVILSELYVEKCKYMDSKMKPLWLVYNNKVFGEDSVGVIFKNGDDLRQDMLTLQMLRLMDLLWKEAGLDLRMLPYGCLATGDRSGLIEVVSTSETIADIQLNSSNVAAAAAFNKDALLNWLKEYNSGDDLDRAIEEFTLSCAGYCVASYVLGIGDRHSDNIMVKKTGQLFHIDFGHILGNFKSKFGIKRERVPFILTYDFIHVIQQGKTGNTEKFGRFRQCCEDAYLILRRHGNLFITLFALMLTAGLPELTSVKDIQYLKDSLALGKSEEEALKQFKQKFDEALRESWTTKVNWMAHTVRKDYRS
Sequence (P27986 whole entry partner): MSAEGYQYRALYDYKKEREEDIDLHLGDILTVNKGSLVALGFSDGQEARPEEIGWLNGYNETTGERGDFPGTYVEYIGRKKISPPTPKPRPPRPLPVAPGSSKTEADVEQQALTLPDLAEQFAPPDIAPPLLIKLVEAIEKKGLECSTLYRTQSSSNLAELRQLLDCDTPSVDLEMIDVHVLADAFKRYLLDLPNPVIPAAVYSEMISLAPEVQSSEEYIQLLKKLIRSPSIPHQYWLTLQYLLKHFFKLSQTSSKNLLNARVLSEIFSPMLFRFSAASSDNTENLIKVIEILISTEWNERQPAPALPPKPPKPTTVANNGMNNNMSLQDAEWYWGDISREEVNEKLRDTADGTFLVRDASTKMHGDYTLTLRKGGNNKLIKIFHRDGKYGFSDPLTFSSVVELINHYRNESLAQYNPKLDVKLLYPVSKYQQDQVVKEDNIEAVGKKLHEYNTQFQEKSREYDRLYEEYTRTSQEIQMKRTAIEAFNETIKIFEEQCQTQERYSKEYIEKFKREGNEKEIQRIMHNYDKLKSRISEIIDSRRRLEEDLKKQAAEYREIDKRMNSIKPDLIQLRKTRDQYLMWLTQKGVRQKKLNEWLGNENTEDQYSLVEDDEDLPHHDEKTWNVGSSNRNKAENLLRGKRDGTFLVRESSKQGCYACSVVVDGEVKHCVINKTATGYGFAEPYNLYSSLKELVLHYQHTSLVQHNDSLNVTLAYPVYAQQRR
Assay: In vitro PI3K β inhibition assay
Assay type: biochemical

See these solved cases before continuing.
compound	IC50
C=Cc1cccc2cc(C(C)Nc3ncnc4[nH]cnc34)n(-c3ccccc3)c(=O)c12 (stereo in doubt)	< 10000 nM
C[C@@H](Nc1ncnc2[nH]cnc12)c1cc2cccc(N3CCOCC3)c2c(=O)n1-c1ccccc1 (stereo in doubt)	> 10000 nM

The compound listed as `C[C@H](Nc1ncnc2[nH]cc(C(N)=O)c12)c1cc2cccc(-c3cnn(C)c3)c2c(=O)n1-c1ccccc1` has a reported IC50 of < 10000 nM

Quick note, IC50 for C[C@@H](Nc1ncnc2[nH]cnc12)c1cc2cccc(-c3cc[nH]n3)c2c(=O)n1-c1ccccc1 (stereo in doubt) landed at > 10000 nM

Quick note, IC50 for C[C@@H](Nc1ncnc2[nH]cnc12)c1cc2cccc(-c3cccc(F)c3)c2c(=O)n1-c1ccccc1 (stereo in doubt) landed at < 10000 nM

response.value for C[C@@H](Nc1ncnc2[nH]cnc12)c1cc2cccc(NC3CCOCC3)c2c(=O)n1-c1ccccc1 (stereo in doubt) (field: IC50) = > 10000 nM

Sample CCc1cccc2cc(C(C)Nc3ncnc4[nH]cnc34)n(-c3ccccc3)c(=O)c12 (stereo in doubt) ; IC50 observed: < 10000 nM

====

Target: PI3K γ (Homo sapiens, UniProt P48736)
Construct: purchased Sigma
Assay: In vitro PI3K γ inhibition assay
Assay type: biochemical
Reported IC50 by item:

molecule	measure	result
C[C@@H](Nc1ncnc2[nH]cnc12)c1cc2cccc(N(C)C)c2c(=O)n1-c1ccccc1 (stereo in doubt)	IC50	< 10000 nM
C[C@H](Nc1ncnc2[nH]cnc12)c1cc2cccc(-n3cccn3)c2c(=O)n1-c1ccccc1	IC50	< 10000 nM
C[C@@H](Nc1ncnc2[nH]cnc12)c1cc2cccc(-c3cnn(C)c3)c2c(=O)n1-c1ccccc1 (stereo in doubt)	IC50	< 100 nM

Given item `C[C@H](Nc1ncnc(N)n1)c1cc2cccc(-c3cnn(C)c3)c2c(=O)n1-c1ccccc1` , the value recorded as its IC50 is < 10000 nM
